Biological target: human GLP-1 receptor (human, UniProt P43220 24-463)
Assay: cell-based or functional assay
*1 amine or outer side, *2 acyl side, *3 side chain or, on linkers, in order; H or OH if unused. Where no end group is shown, it is not given here. Side-chain parts run from the residue outwards. [ ]: non-standard residue; d: D form. The star is where a group is joined. Decanoyl(10-(4-HOOC-PhO)) = O=C(O)c1ccc(OCCCCCCCCCC(=O)*)cc1; αMePhe(2-F) = C[C@](N)(Cc1ccccc1F)C(=O)O; γGlu = O=C(O)[C@H](CCC(=O)[*:2])N[*:1]; αMeY = C[C@](N)(Cc1ccc(O)cc1)C(=O)O; αMeL = CC(C)C[C@](C)(N)C(=O)O; Orn = NCCC[C@H](N)C(=O)O; AEEA = NCCOCCOCC(=O)O; Aib = CC(C)(N)C(=O)O
measurement_type: cAMP Emax (1.0% HSA) (%)
Give just the numeric value; % need not be written.

binder	value_unit	cAMP Emax (1.0% HSA)
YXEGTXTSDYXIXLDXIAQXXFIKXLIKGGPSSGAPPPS (Y-Aib-EGT-αMeF(2F)-TSDY-Aib-I-αMeL-LD-Orn-IAQ-Aib-Orn-FIK((2-[2-(2-Amino-ethoxy)-ethoxy]-acetyl)2-(γ-Glu)-(10-(4-carboxyphenoxy)decanoyl))-αMeY-LIK((2-[2-(2-Amino-ethoxy)-ethoxy]-acetyl)2-(γ-Glu)-(10-(4-carboxyphenoxy)decanoyl))GGPSSGAPPPS-NH2) [Example 355]	%	109

Name the recorded cAMP Emax (1.0% HSA) of the item Y[Aib]EGT[αMePhe(2-F)]TSDV[Aib]I[αMeL]LD[Orn]QAQ[Aib][Orn]FIK([AEEA-AEEA-γGlu-Decanoyl(10-(4-HOOC-PhO))])[αMeY]LIK([AEEA-AEEA-γGlu-Decanoyl(10-(4-HOOC-PhO))])GGPSSGAPPPS-NH2 [Example 447] in your answer.
98.4

// Input: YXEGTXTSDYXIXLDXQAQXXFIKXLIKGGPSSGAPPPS (Y-Aib-EGT-αMeF(2F)-TSDY-Aib-I-αMeL-LD-Orn-QAQ-Aib-Orn-FIK((2-[2-(2-Amino-ethoxy)-ethoxy]-acetyl)2-(γ-Glu)-CO-(CH2)12-CO2H)-αMeY-LIK((2-[2-(2-Amino-ethoxy)-ethoxy]-acetyl)2-(γ-Glu)-CO-(CH2)12-CO2H)GGPSSGAPPPS-NH2) [Example 401] . Output its cAMP Emax (1.0% HSA) only.
107

Could you please provide reported cAMP Emax (1.0% HSA) for YXEGTXTSDKXIXLDGKAQXEFIXXLIEGGPSSGAPPPS (Y-Aib-EGT-αMeF(2F)-TSDK((2-[2-(2-Amino-ethoxy)-ethoxy]-acetyl)2-(γ-Glu)-CO-(CH2)10-CH3)-Aib-I-αMeL-LDGK((2-[2-(2-Amino-ethoxy)-ethoxy]-acetyl)2-(γ-Glu)-CO-(CH2)10-CH3)AQ-Aib-EFI-(D-Glu)-αMeY-LIEGGPSSGAPPPS-NH2) [Example 445] ? Thanks!
100

Supply measured cAMP Emax (1.0% HSA) of YXEGTXTSDXXGXLDXQAQXXFIKXLIKGGPSSGAPPPS (Y-Aib-EGT-αMeF(2F)-TSD-4Pal-Aib-G-αMeL-LD-Orn-QAQ-Aib-Orn-FIK((2-[2-(2-Amino-ethoxy)-ethoxy]-acetyl)2-(γ-Glu)-CO-(CH2)12-CO2H)-αMeY-LIK((2-[2-(2-Amino-ethoxy)-ethoxy]-acetyl)2-(γ-Glu)-CO-(CH2)12-CO2H)GGPSSGAPPPS-NH2) [Example 441] in your reply.
111

Determine from records and report cAMP Emax (1.0% HSA) for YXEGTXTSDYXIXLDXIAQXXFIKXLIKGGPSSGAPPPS (Y-Aib-EGT-αMeF(2F)-TSDY-Aib-I-αMeL-LD-Orn-IAQ-Aib-Orn-FIK((2-[2-(2-Amino-ethoxy)-ethoxy]-acetyl)3-(γ-Glu)--(10-(4-carboxyphenoxy)decanoyl))-αMeY-LIK((2-[2-(2-Amino-ethoxy)-ethoxy]-acetyl)3-(γ-Glu)--(10-(4-carboxyphenoxy)decanoyl))GGPSSGAPPPS-NH2) [Example 481]
112

Query cAMP Emax (1.0% HSA) for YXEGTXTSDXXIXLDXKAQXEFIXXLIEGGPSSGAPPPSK (Y-Aib-EGT-αMeF(2F)-TSD-4Pal-Aib-I-αMeL-LD-Orn-K((2-[2-(2-Amino-ethoxy)-ethoxy]-acetyl)2-(γ-Glu)-CO-(CH2)12-CO2H)AQ-Aib-EFI-(D-Glu)-αMeY-LIEGGPSSGAPPPSK((2-[2-(2-Amino-ethoxy)-ethoxy]-acetyl)2-(γ-Glu)-CO-(CH2)12-CO2H)-NH2) [Example 359]
95.1

Input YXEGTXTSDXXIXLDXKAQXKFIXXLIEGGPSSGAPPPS (Y-Aib-EGT-αMeF(2F)-TSD-4Pal-Aib-I-αMeL-LD-Orn-K(PEG4-(γ-Glu)-CO-(CH2)12-CO2H)AQ-Aib-K(PEG4-(γ-Glu)-CO-(CH2)12-CO2H)FI-(D-Glu)-αMeY-LIEGGPSSGAPPPS-NH2) [Example 405] , output reported cAMP Emax (1.0% HSA).
78.1

For the binder YXEGTXTSDXXIXLDXKAQXTFIXXLIKGGPSSGAPPPS (Y-Aib-EGT-αMeF(2F)-TSD-4Pal-Aib-I-αMeL-LD-Orn-K((2-[2-(2-Amino-ethoxy)-ethoxy]-acetyl)2-(γ-Glu)-CO-(CH2)10-CH3)AQ-Aib-TFI-(D-Glu)-αMeY-LIK((2-[2-(2-Amino-ethoxy)-ethoxy]-acetyl)2-(γ-Glu)-CO-(CH2)10-CH3)GGPSSGAPPPS-NH2) [Example 419] , give its reported cAMP Emax (1.0% HSA).
97.3
